# Test system: HASPIN
# Construct: gene GSG2
# experimental.context: concentration: 1 μM, replicates: in singlicate; n = 1;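 also: KINOMEscan kinase panel screen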
We use 20% as the dividing line for %Inh: on or above the line is class 1, below is class 0.

These solved cases illustrate the format of a correct answer.
{"columns": ["molecule", "class.assignment"],
 "data": [
  ["Cc1cc(-c2ccnc(Nc3cccc(C#N)c3)n2)cc(C)c1O [GSK1440913]", "class 1"],
  ["Cc1cccc(Nc2nc(NCCN)ncc2C(N)=O)c1 [GSK1292139]", "class 1"],
  ["Cc1ccc(-c2ccc3occ(-c4ccc(S(C)=O)cc4)c3c2)nn1 (stereo not shown)", "class 1"]
]}

Request: Determine whether measured %Inh meets or exceeds 20% for c1ccc(Oc2ccc(Nc3ccnc4cc(-c5ccc(CN6CCCCC6)o5)ccc34)cc2)nc1 [GW567143]
Result: class 0

Request: Determine whether measured %Inh meets or exceeds 20% for Cc1cccc(Nc2nc(N[C@H]3CCCC[C@H]3N)ncc2C(N)=O)c1.Cl [GSK986310]
Result: class 0

Request: Determine whether measured %Inh meets or exceeds 20% for CC(C)c1nc(-c2ccc(F)c(NS(=O)(=O)c3c(F)cccc3F)c2)c(-c2ccnc(Nc3ccc(N4CCOCC4)nc3)n2)s1 [GSK1804250]
Result: class 0

Request: Determine whether measured %Inh meets or exceeds 20% for O=C(O)C(F)(F)F.O=c1[nH]ccc2nc(N[C@@H]3CCNC3)nc(Nc3cc(Cl)cc(Cl)c3)c12 [GSK2188764]
Result: class 1

Request: Determine whether measured %Inh meets or exceeds 20% for COc1ccc(C)c(Nc2ccnc(Nc3ccc(-c4cnc[nH]4)cc3)n2)c1.Cl [GW784041]
Result: class 0

Request: Determine whether measured %Inh meets or exceeds 20% for Cc1ccc(O)cc1Nc1ccnc2cc(-c3ccc(CN4CCCCC4)o3)ccc12 [GW557777]
Result: class 0

Request: Determine whether measured %Inh meets or exceeds 20% for Cl.Cl.NC(CNC(=O)c1cc(Br)c(-c2ccnc3[nH]ccc23)s1)c1ccccc1 (stereo not shown) [GSK1322949]
Result: class 1

Request: Determine whether measured %Inh meets or exceeds 20% for CC(C)NCC(Cc1ccccc1)NC(=O)c1cc(Br)c(-c2ccnc3[nH]ccc23)s1.Cl.Cl (stereo not shown) [GSK1383281]
Result: class 1

====

# System: EPHA4
# experimental.context: concentration: 1 μM, replicates: in singlicate; n = 1
We use 20% as the dividing line for %Inh: on or above the line is condition met, below is condition not met.

{"columns": ["molecule", "class.assignment"],
 "data": [
  ["Cl.Cl.NCC(NC(=O)c1cc(-c2cccnc2)c(-c2ccnc3[nH]ccc23)s1)c1ccccc1 (stereo not drawn) [GSK1323434]", "condition not met"],
  ["Cl.N#CCc1ccc(Nc2nccc(Nc3ccc(Oc4ccccc4)cc3)n2)cc1 [GW639905]", "condition not met"],
  ["CC(C)c1nc(-c2ccc(F)c(NS(=O)(=O)c3c(F)cccc3F)c2)c(-c2ccnc(Nc3ccc(N4CCOCC4)nc3)n2)s1 [GSK1804250]", "condition met"],
  ["Nc1ncc(-c2ccc3nccc(-c4ccncc4)c3c2)cc1S(=O)(=O)N1CCCCC1 [GSK1693850]", "condition not met"],
  ["COc1cc(Nc2ccnc3cc(-c4ccncc4)ccc23)cc(OC)c1OC.Cl [GW494610]", "condition met"]
]}

Request: Determine whether measured %Inh meets or exceeds 20% for CN(c1ccc(NC(=O)Nc2cccc(Cl)c2)cc1)c1ccnc(N)n1.Cl [GW830707]
Result: condition not met

Request: Determine whether measured %Inh meets or exceeds 20% for Cc1ccc(O)cc1Nc1ccnc2cc(-c3ccc(CN4CCCCC4)o3)ccc12 [GW557777]
Result: condition met

Request: Determine whether measured %Inh meets or exceeds 20% for Cc1ccc(-c2ccc3occ(-c4ccc(S(C)=O)cc4)c3c2)nn1 (stereo not drawn)
Result: condition not met

Request: Determine whether measured %Inh meets or exceeds 20% for Cc1ccc(NC(=O)c2ccnc(N3CCCCC3)c2)cc1-c1ccc(C(=O)NCC2CC2)cc1 [GW775610]
Result: condition not met

====

# System: RPS6KA5(Kin.Dom.2-C-terminal)
# experimental.context: concentration: 1 μM, replicates: in singlicate; n = 1
We use 20% as the dividing line for %Inh: on or above the line is Criterion met, below is Criterion not met.

These solved cases illustrate the format of a correct answer.
{"columns": ["compound", "class.assignment"],
 "data": [
  ["Nc1cccc(-c2ccc3c(N)n[nH]c3c2)c1", "Criterion not met"],
  ["N#Cc1cnc2cc(-c3cnc(CNCCN4CCOCC4)s3)ccc2c1Nc1ccc(Oc2ccccc2)cc1", "Criterion met"],
  ["COc1cc(Nc2nccc(N3CCC(NC(=O)Nc4ccc5c(c4)OCO5)C3)n2)cc(OC)c1OC (centres unmarked)", "Criterion not met"],
  ["Cl.Cl.NCC(NC(=O)c1cc(-c2cccnc2)c(-c2ccnc3[nH]ccc23)s1)c1ccccc1 (centres unmarked)", "Criterion met"],
  ["O=C(O)C(F)(F)F.O=c1[nH]ccc2nc(N[C@@H]3CCNC3)nc(Nc3cc(Cl)cc(Cl)c3)c12", "Criterion met"],
  ["O=C(Nc1n[nH]c2cc(-c3cccs3)ccc12)C1CC1", "Criterion not met"],
  ["COC(=O)Nc1nc2ccc(Oc3ccc(NC(=O)Nc4cc(C(F)(F)F)ccc4F)cc3)cc2[nH]1.Cl", "Criterion not met"],
  ["Cc1cc(-c2ccnc(Nc3cccc(C#N)c3)n2)cc(C)c1O", "Criterion not met"]
]}

Request: Determine whether measured %Inh meets or exceeds 20% for "Fc1cc(Cl)ccc1Nc1ccnc2cc(-c3ccc(CN4CCOCC4)o3)ccc12"
Result: Criterion not met

Request: Determine whether measured %Inh meets or exceeds 20% for "Cc1nn2c(=O)cc(N3CCO[C@H](C)C3)nc2n1Cc1cccc(Cl)c1Cl"
Result: Criterion met

Request: Determine whether measured %Inh meets or exceeds 20% for "CN(C)CCOc1ccc(-c2cc(-c3ccc(Cl)c(O)c3)c(-c3ccncc3)[nH]2)cc1.Cl.Cl"
Result: Criterion met

====

# Test system: MKNK2
# experimental.context: concentration: 1 μM, replicates: in singlicate; n = 1
Form field: %Inh (one value per entry).

Recorded %Inh, per entry:
{"columns": ["structure.smiles", "system.under.test", "result.value"],
 "data": [
  ["Cc1ccc(O)cc1Nc1ccnc2ccc(C(C)(C)C)cc12", "MKNK2", "30%"],
  ["COC(=O)Nc1nc2ccc(Oc3ccc(CC(=O)Nc4cc(C(F)(F)F)ccc4F)cc3)cc2[nH]1", "MKNK2", "3%"],
  ["COc1cc(Nc2nccc(N3CCC(NS(=O)(=O)c4ccc(NC(C)=O)cc4)CC3)n2)cc(OC)c1OC", "MKNK2", "83%"]
]}

Given item "CSc1ccc(NC2=C(c3ccc(Cl)cc3)C(=O)NC2=O)cc1" , the value recorded as its %Inh is 0%

====

# Tested on: CSNK1A1L
# experimental.context: concentration: 1 μM, replicates: in singlicate; n = 1
Form field: %Inh (one value per entry).
Entry format: amount then unit.

Recorded %Inh, per entry:
{"columns": ["molecule", "system.under.test", "%Inh"],
 "data": [
  ["CC(C)c1nc(-c2ccc(F)c(NS(=O)(=O)c3c(F)cccc3F)c2)c(-c2ccnc(Nc3ccc(N4CCOCC4)nc3)n2)s1 [GSK1804250]", "CSNK1A1L", "19%"],
  ["NCCC(NC(=O)c1cc(Br)c(-c2ccnc3[nH]ccc23)s1)c1ccccc1.O=C(O)C(F)(F)F.O=C(O)C(F)(F)F (stereo not shown) [GSK1307810]", "CSNK1A1L", "71%"],
  ["O=C(O)C(F)(F)F.O=c1[nH]ccc2nc(N[C@@H]3CCNC3)nc(Nc3cc(Cl)cc(Cl)c3)c12 [GSK2188764]", "CSNK1A1L", "56%"],
  ["CN(C)c1ncnc2nc[nH]c12 [SKF-31736]", "CSNK1A1L", "0%"],
  ["CSc1ccc(NC2=C(c3ccc(Cl)cc3)C(=O)NC2=O)cc1 [SB-317658]", "CSNK1A1L", "0%"],
  ["Cc1cc(-c2c(-c3ccc(F)cc3)ncn2CCCN2CCOCC2)nc(N)n1 [SB-222517]", "CSNK1A1L", "0%"],
  ["Fc1cc(Cl)ccc1Nc1ccnc2cc(-c3ccc(CN4CCOCC4)o3)ccc12 [GW560109]", "CSNK1A1L", "0%"],
  ["O=C1NC(=O)C(c2ccccc2Cl)=C1Nc1cccc(Cl)c1 [SB-342409]", "CSNK1A1L", "9%"],
  ["CNc1nccc(-c2ccc3c(N)n[nH]c3c2)n1 [GSK2206003]", "CSNK1A1L", "6%"]
]}

Switching to the query record.
Given item COC(=O)Nc1nc2ccc(Oc3ccc(NC(=O)Nc4cc(C(F)(F)F)ccc4F)cc3)cc2[nH]1.Cl [GW654607] , the value recorded as its %Inh is 0%
